Test system: Fibroblast
Assay: Multiplex assay against human fibroblast
Format: toxicity, cell-based
Conditions: 12 h, 1 µM, compound concentration 1 uM, number of replicates 2
Entries and their measured Population Fragmented Nuclei (%) follow.
Answer with a number only, understood to be in %.

Past entries and their recorded results:
> print(dat)
                                   compound                   measured.metric  output.unit  value.observed
1  NC(=O)c1ccc(-c2nc(-c3ccc4c(c3)OCCO4)c(-c3ccccn3)[nH]2)cc1  Population Fragmented Nuclei (%)            %               5
2  Cl.Clc1ccc2nsnc2c1NC1=NCCN1 [TIZANIDINE HYDROCHLORIDE]  Population Fragmented Nuclei (%)            %              10
3  c1ccc2c(-c3coc4cc(-c5ccc(N6CCNCC6)cc5)cnc34)ccnc2c1  Population Fragmented Nuclei (%)            %              18
4  CS(=O)(=O)c1ccc(C(=O)Nc2cc(F)cc(COc3cc(F)c(Br)cc3CN3CC[C@H](O)C3)c2)c(Cl)c1.O=CO  Population Fragmented Nuclei (%)            %              17

CC(C)N1CCN(Cc2cnc(-c3cc(-c4cccc5[nH]ccc45)cc4[nH]ncc34)o2)CC1 has a reported Population Fragmented Nuclei (%) of 10

Cc1ccc2c(N)c(C(=O)NC3CCc4cc(N5CC6CCC(C5)N6)ccc4C3)sc2n1.O=CO (configuration not stated) has a reported Population Fragmented Nuclei (%) of 16

CCN1C(=O)N(c2c(F)c(OC)cc(OC)c2F)Cc2cnc3[nH]c(CN4CCOCC4)cc3c21 has a reported Population Fragmented Nuclei (%) of 8

====

System: Fibroblast
Assay: Multiplex assay against human fibroblast
Type: toxicity, cell-based
Conditions: 24 h, 10 µM, compound concentration 10 uM, number of replicates 2
*1 amine or outer side, *2 acyl side, *3 side chain or, on linkers, in order; H or OH if unused. Where a SMILES comes first, the peptide text is derived from it. Bridges are numbered along the chain shown (N, C = ends). Roman numbers before positions name the chains, in order. [ ]: non-standard residue; d: D form. Hexamethylenediamine = C(CCCN[*:2])CCN[*:1]; Dip = N[C@H](C(=O)O)C(c1ccccc1)c1ccccc1; Chg = N[C@H](C(=O)O)C1CCCCC1; NMeA = CN[C@@H](C)C(=O)O
Entries and their measured Population Normal (%) follow.
Answer with a number only, understood to be in %.

Past entries and their recorded results:
MOLECULE	MEASURED METRIC	VALUE OBSERVED
Cc1cn(CCN2CCN(c3ccccc3-c3cc(C#N)cc(C(=O)NCCCN4CCCC4)c3)CC2)c2ccccc12	Population Normal (%)	99
CCN(CC)C/C=C/C(=O)Nc1cc2c(Nc3ccc(F)c(Cl)c3)ncnc2cc1OCC1CC1	Population Normal (%)	99
O=C1NC(=O)C(c2ccccc2[N+](=O)[O-])=C1Nc1ccc(O)c(Cl)c1	Population Normal (%)	100
CC(C)c1c(NC(=O)Nc2ccc(Cl)cc2)c(=O)n(-c2ccccc2)n1C	Population Normal (%)	100
CC(C)NC(=O)[C@H]1CCC[C@H]1Nc1nc(Nc2ccc(C(=O)N(C)C3CCN(C)CC3)cc2)ncc1Cl	Population Normal (%)	100
COc1ccc(F)c(F)c1C(=O)c1cnc(NC2CCN(S(C)(=O)=O)CC2)nc1N	Population Normal (%)	100

CC(C)S(=O)(=O)c1ccccc1Nc1nc(N[C@@H]2CCCN(CCCCCCCNC(=O)COc3cccc4c3C(=O)N(C3CCC(=O)NC3=O)C4=O)C2)ncc1Cl (some centres not stated) has a reported Population Normal (%) of 98

CCN1C(=O)N(c2c(F)c(OC)cc(OC)c2F)Cc2cnc3[nH]c(CN4CCOCC4)cc3c21 has a reported Population Normal (%) of 100

CC(C)(C)c1cnc(CSc2cnc(NC(=O)C3CCNCC3)s2)o1 has a reported Population Normal (%) of 100

COc1ccccc1-c1cc(Nc2cccc(CS(N)(=O)=O)c2)ncn1 has a reported Population Normal (%) of 100

CCOC(=O)Nc1cc(-c2ccc(C)c(NS(C)(=O)=O)c2)nn2c(C)nnc12 has a reported Population Normal (%) of 100

CSc1cc2c(cc1C(F)(F)F)N(C(=O)Nc1cccnc1)CC2 has a reported Population Normal (%) of 100

CC1=C(C)C(=O)C(C(CCCCCC(=O)O)c2ccccc2)=C(C)C1=O (configuration not stated) has a reported Population Normal (%) of 100

COc1ccncc1C(=O)NC(=O)Nc1ccc(-c2ccccc2)c(C(F)(F)F)c1 has a reported Population Normal (%) of 100

O=C(Nc1ccnc(NC(=O)C2CC2)c1)c1c(Cl)cccc1Cl has a reported Population Normal (%) of 99

COc1ccc(CC[C@@H](OC(=O)[C@@H]2CCCCN2C(=O)[C@H](c2cc(OC)c(OC)c(OC)c2)C2CCCCC2)c2cccc(OCCN3CCOCC3)c2)cc1OC has a reported Population Normal (%) of 99

CN[C@@H](C)C(=O)N[C@H](C(=O)N1CCC[C@H]1C(=O)N[C@H](C(=O)NCCCCCCNC(=O)[C@@H](NC(=O)[C@@H]1CCCN1C(=O)[C@@H](NC(=O)[C@H](C)NC)C1CCCCC1)C(c1ccccc1)c1ccccc1)C(c1ccccc1)c1ccccc1)C1CCCCC1 (I: H-[NMeA][Chg]P[Dip] / II: H-[NMeA][Chg]P[Dip]; linker I:C-II:C via Hexamethylenediamine) has a reported Population Normal (%) of 100

Entry source: ChEMBL document CHEMBL5303300
